- tested-target: N-type calcium channel (NTCC) (Homo sapiens, UniProt Q00975)
- Sequence (Q00975 whole entry): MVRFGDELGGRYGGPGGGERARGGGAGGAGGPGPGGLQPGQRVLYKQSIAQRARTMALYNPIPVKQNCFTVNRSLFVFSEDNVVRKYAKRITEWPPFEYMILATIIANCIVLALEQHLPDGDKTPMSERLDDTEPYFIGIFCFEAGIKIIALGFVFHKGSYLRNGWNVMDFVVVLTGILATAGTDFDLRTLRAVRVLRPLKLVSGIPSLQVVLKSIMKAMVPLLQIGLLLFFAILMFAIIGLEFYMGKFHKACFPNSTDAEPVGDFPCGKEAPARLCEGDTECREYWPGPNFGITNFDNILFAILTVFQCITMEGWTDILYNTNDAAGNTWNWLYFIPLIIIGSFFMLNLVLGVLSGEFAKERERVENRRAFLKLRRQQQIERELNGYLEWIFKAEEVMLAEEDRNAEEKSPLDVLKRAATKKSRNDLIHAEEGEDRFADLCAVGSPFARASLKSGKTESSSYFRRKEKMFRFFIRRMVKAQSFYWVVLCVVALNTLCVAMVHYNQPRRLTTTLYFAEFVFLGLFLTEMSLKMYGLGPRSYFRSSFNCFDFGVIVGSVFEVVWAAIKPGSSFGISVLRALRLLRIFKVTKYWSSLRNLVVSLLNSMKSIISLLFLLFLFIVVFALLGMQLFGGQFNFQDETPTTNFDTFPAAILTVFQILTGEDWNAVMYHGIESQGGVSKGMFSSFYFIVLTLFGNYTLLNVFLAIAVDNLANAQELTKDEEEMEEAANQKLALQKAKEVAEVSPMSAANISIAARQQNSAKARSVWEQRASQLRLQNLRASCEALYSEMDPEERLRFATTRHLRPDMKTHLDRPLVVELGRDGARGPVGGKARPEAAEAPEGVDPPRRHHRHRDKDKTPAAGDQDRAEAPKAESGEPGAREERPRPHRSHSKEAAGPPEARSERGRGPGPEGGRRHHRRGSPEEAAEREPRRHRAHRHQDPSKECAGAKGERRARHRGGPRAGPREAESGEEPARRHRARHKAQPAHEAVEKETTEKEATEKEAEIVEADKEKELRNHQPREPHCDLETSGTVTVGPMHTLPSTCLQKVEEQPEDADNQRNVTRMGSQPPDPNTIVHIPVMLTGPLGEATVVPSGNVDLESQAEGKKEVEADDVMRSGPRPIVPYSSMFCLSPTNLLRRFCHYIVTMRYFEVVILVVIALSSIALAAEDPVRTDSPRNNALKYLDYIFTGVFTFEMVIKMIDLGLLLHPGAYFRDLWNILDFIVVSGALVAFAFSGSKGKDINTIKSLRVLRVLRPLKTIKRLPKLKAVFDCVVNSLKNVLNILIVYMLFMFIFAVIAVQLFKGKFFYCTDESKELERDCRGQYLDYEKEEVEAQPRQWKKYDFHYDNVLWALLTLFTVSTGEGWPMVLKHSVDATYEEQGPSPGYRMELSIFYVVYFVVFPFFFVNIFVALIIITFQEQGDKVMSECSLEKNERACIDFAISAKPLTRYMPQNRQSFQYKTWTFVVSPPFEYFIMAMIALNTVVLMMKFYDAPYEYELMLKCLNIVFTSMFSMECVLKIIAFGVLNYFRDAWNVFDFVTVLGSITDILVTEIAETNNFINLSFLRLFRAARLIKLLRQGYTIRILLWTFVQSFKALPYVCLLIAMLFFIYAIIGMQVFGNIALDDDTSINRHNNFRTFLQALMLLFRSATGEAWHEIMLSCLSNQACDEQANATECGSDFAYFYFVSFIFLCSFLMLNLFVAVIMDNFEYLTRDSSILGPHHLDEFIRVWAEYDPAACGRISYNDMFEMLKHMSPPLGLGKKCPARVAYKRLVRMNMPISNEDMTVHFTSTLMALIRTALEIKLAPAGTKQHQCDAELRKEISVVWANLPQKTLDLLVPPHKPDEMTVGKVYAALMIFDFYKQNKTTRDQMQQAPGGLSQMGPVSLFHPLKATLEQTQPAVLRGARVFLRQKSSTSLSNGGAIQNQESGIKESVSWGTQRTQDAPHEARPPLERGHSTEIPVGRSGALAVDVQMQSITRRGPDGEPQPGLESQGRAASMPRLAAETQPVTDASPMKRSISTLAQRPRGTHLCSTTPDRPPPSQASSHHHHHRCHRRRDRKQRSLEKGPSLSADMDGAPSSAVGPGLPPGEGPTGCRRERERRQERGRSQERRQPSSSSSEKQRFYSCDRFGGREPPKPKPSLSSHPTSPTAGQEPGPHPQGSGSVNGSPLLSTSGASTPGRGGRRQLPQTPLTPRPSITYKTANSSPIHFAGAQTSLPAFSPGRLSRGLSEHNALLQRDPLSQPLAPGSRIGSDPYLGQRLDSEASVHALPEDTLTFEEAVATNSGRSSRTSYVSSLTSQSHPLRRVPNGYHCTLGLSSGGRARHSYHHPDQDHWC
- Sequence (P54289 25-956 partner limits assumed): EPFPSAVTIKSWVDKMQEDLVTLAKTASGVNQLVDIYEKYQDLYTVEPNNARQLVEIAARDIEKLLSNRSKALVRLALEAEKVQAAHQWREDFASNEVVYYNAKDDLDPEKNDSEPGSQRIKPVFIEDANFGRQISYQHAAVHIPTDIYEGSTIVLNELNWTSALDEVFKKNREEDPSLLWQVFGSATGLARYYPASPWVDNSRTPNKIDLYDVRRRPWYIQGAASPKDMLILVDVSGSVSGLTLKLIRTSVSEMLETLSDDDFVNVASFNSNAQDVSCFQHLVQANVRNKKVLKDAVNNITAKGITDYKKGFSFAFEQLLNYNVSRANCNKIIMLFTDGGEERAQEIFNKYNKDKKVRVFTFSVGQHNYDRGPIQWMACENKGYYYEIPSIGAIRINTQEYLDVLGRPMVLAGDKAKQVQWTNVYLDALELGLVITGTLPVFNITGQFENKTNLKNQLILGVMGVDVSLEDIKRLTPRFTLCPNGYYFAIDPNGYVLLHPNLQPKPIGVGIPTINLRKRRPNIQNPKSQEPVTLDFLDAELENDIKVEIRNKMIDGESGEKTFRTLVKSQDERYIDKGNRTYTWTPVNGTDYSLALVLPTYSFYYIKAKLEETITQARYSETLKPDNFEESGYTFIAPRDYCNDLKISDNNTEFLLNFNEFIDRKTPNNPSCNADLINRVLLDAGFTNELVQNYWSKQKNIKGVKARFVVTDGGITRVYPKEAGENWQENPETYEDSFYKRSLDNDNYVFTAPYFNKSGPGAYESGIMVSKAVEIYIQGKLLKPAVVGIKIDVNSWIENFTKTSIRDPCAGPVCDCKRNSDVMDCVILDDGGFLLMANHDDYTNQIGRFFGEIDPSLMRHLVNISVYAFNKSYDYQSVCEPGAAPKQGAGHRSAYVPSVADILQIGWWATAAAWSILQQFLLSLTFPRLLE
- Sequence (P54289 957-1103 partner limits assumed): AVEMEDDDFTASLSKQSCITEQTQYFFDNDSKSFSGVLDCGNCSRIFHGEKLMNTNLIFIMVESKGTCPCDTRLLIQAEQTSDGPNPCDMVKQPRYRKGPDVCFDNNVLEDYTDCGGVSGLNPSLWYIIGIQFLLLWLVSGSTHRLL
- Sequence (P54284 whole entry partner): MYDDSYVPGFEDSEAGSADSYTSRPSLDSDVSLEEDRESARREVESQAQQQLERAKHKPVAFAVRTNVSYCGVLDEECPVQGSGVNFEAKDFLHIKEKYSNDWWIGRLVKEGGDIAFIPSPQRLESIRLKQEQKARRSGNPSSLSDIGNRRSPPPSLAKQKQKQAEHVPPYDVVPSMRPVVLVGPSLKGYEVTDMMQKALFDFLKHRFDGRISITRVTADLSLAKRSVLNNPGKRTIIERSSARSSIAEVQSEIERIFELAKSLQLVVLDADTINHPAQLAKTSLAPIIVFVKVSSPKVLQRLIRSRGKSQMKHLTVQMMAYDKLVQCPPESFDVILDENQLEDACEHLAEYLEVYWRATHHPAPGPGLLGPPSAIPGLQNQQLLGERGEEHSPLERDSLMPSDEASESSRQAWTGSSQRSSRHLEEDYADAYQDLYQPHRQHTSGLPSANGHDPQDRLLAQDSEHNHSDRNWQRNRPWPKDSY
- assay-method-text: FLIPR calcium mobilization assay for N-type calcium channel
- condition-parameters: calcium mobilization in vitro assay; differentiated IMR32 cells
outcome-measure: IC50 (µM)

chemical-string	tested-target	IC50 (µM)
Cc1cccc(C)c1NC(=O)CN1CCC(N(C2CC2)S(=O)(=O)c2cccc(C(F)(F)F)c2)CC1	N-type calcium channel (NTCC) (Homo sapiens, UniProt Q00975)	0.31

P. COc1cc(NCCC(=O)N2CCC(N(C(C)C)S(=O)(=O)c3cccc(C(F)(F)F)c3)CC2)cc(OC)c1
Q. N#Cc1cc(F)cc(NC(=O)CN2CCC(N(C3CC3)S(=O)(=O)c3cccc(C(F)(F)F)c3)CC2)c1
R. O=C(CN1CCC(N(C2CC2)S(=O)(=O)c2cccc(Cl)c2)CC1)Nc1cc(C(F)(F)F)cc(C(F)(F)F)c1
S. O=C(CC(=O)N1CCC(N(C2CC2)S(=O)(=O)c2cccc(C(F)(F)F)c2)CC1)Nc1ccc(F)cc1F
Q) Task for the reader: rank each entry by its IC50, from the minimum upward. Answer with the labels in sequence, matching the requested order.
A) Q, P, S, R
(Q: 0.36 µM, P: 0.82 µM, S: 1.33 µM, R: 2.53 µM)
